Values were extracted from patent US20220195023A1.

- system: (NANP)6 (Plasmodium falciparum)
- method-summary: SPR, antibody on chip
Values of Kd strictly less than 1000 pM map to TRUE, and values of at least 1000 pM map to FALSE.

These recorded examples may help you get a feel for the data.
AB-007068 (antibody, V domains shown) VH: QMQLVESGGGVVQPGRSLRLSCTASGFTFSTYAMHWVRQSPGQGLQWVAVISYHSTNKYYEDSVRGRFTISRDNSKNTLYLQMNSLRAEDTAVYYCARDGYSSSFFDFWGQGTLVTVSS VL: DIQMTQSPSTLSASVGDRVAITCRASQSISRWLAWYQQQPGKAPKLLMSLASVLESGVPSRFSGSGSGTEFTLTISSLQPDDFATYYCQHYNSYFVTFGQGTKVEIK : FALSE
AB-007049 (antibody, V domains shown) VH: QMQLVESGGGVVQPGRSLRLSCTASGFTFSTYAMHWVRQSPGQGLQWVAVISNHETNKYYEDSVRGRFTISRDNSKNTLYLQMNSLRAEDTAVYYCARDGYSSSFFDFWGQGTLVTVSS VL: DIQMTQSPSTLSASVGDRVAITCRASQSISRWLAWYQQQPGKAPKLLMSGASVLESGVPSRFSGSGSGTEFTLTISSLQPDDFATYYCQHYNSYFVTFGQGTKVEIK : TRUE
AB-007035 (antibody, V domains shown) VH: QMQLVESGGGVVQPGRSLRLSCTASGFTFSSYAMHWVRQSPGQGLQWVAVISYHSTNKYYEDSVRGRFTISRDNSKNTLYLQMNSLRAEDTAVYYCARDGYSSSFFDFWGQGTLVTVSS VL: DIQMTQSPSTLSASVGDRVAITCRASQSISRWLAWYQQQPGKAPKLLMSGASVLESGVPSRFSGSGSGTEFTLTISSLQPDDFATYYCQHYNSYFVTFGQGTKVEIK : TRUE
AB-007072 (antibody, V domains shown) VH: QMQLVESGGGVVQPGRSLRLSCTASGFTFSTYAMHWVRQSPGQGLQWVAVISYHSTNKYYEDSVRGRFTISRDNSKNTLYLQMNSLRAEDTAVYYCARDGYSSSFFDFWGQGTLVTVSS VL: DIQMTQSPSTLSASVGDRVAITCRASQSISRWLAWYQQQPGKAPKLLMSGASNLESGVPSRFSGSGSGTEFTLTISSLQPDDFATYYCQHYNSYFVTFGQGTKVEIK : TRUE
AB-007045 (antibody, V domains shown) VH: QMQLVESGGGVVQPGRSLRLSCTASGFTFSTYAMHWVRQSPGQGLQWVAVISYHSTNKYYEDSVRGRFTISRDNSKNTLYLQMNSLRAEDTAVYYCARDAYSSSFFDFWGQGTLVTVSS VL: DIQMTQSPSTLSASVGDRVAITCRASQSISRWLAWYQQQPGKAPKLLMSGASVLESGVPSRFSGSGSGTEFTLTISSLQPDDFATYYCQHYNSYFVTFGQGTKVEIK : FALSE

stdin: Quick check: Kd of AB-007036 (antibody, V domains shown) VH: QMQLVESGGGVVQPGRSLRLSCTASGFTFSTYAMHWVRQSPGQGLQWVAVISYDSTNKYYEDSVRGRFTISRDNSKNTLYLQMNSLRAEDTAVYYCARDGYSSSFFDFWGQGTLVTVSS VL: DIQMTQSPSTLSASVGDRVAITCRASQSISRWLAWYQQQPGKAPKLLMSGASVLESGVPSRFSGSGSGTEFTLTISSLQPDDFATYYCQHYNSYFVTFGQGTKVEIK under 1000 pM?
stdout: TRUE

stdin: Lab note: confirm whether the reported Kd for this binder is below 1000 pM, equality not counting. binder: AB-007065 (antibody, V domains shown) VH: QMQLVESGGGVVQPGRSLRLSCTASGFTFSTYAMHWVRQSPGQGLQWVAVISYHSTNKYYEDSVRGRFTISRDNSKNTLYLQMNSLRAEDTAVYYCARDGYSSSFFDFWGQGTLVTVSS VL: DIQMTQSPSTLSASVGDRVAITCRASQSISRWLAWYQQQPGKAPKLLMSKASVLESGVPSRFSGSGSGTEFTLTISSLQPDDFATYYCQHYNSYFVTFGQGTKVEIK
stdout: TRUE

stdin: For AB-007047 (antibody, V domains shown) VH: QMQLVESGGGVVQPGRSLRLSCTASGFTFSNYAMHWVRQSPGQGLQWVAVISYHSTNKYYEDSVRGRFTISRDNSKNTLYLQMNSLRAEDTAVYYCARDGYSSSFFDFWGQGTLVTVSS VL: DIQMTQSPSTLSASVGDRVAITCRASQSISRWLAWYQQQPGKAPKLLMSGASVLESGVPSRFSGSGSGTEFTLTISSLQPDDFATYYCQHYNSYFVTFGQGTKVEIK , is the recorded Kd below the cut-off of 1000 pM?
stdout: TRUE
